Where do these numbers come from? They come from paper PMC10076643.

- System: MCF-7 (human breast cancer cell line)
- experiment: MTT antiproliferative assay, MCF-7
- Type: cell-based
- experimentalSetup: MCF7, 72 h
- Source text: All the synthesized compounds were screened for in vitro antiproliferative activity against four human cancer cell lines A549 (human lung cancer cell line), KB (human oral epidermoid carcinoma cell line), Hela (human cervical carcinoma cell line), MCF-7 (human breast cancer cell line) and two human normal cell lines HUVEC (human umbilical vein endothelial cell) and LO2 (human normal hepatocytes) through the 3-(4,5-dimethyl-2-thiazolyl)-2,5-diphenyl-2-H-tetrazolium bromide (MTT) assay. […]
measuredQuantity: IC50 (µM)

{"molecule": "O=CC=C(Cl)c1cc2cc(O)ccc2oc1=O", "measuredQuantity": "IC50", "unitAbbrev": "µM", "measuredNumber": 8.71}
{"molecule": "CCCOc1ccc2cc(C(Cl)=CC=O)c(=O)oc2c1", "measuredQuantity": "IC50", "unitAbbrev": "µM", "measuredNumber": 1.73}

P. O=CC=C(Cl)c1cc2ccc(Br)cc2oc1=O
Q. Cc1ccc2oc(=O)c(C(Cl)=CC=O)cc2c1
In the pair P and Q , the larger recorded IC50 belongs to which? Bench note: the answer is the label of the chosen record.
Q
(Q: 20.1 µM, P: 4.23 µM)
